Source listed as patent US20250074911A1.

Biological target: BTK T316A (Homo sapiens (Human), UniProt Q06187, T316A)
Sequence (Q06187 whole entry T316A): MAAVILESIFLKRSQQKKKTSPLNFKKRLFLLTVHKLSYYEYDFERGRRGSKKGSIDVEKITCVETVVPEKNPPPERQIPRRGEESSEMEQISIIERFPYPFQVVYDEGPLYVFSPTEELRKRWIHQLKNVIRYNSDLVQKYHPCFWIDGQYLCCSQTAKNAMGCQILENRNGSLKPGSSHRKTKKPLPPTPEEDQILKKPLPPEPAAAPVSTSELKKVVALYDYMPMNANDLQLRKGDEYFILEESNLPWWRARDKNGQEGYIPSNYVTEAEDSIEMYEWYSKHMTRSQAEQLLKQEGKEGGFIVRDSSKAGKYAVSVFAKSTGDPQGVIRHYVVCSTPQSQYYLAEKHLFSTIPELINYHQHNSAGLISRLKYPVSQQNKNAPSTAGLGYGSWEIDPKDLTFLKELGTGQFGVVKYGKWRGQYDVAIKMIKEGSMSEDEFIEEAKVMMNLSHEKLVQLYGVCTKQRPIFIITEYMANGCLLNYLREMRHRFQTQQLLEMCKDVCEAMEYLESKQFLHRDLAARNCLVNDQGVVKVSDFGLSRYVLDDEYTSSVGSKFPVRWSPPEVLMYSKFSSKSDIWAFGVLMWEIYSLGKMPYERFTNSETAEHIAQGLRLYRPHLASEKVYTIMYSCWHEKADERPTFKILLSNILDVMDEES
Assay: Binding kinetics measurements (Surface Plasmon Resonance) on BTK T316A
Details: target residence time, SPR
PARAMETER: Tau (h) BTK T316A (Act)

MOLECULE: Nc1ncc2n3c(nc(-c4ccc(C(=O)Nc5cc(C(F)(F)F)ccn5)cc4)c13)C1CCC[C@H](C1)NC(=O)CCC/C=C\C2 [Example 133b]
UNIT_NAME: h
Tau (h) BTK T316A (Act): 1.96

1: CN1C/C=C/c2cnc(N)c3c(-c4ccc(C(=O)Nc5cc(C(F)(F)F)ccn5)cc4)nn(c23)[C@@H]2CCC[C@H](C2)NC(=O)CCCC1 [Example 20]
2: Nc1ncc2c3c1c(-c1ccc(C(=O)Nc4cc(C(F)(F)F)ccn4)cc1)nn3[C@@H]1CCC[C@H](C1)C(=O)NCCCC/C=C/2 [Example 1]
Looking at recorded values for Tau (h) BTK T316A (Act), does 1 or 2 come in lower? Identify your pick by its label.
1
(1: 2.01 h, 2: 2.99 h)
